Task for the reader: assign each of the following compounds its reported log10(Ki).
target: rNPFF-1 (Rattus norvegicus, UniProt Q9EP86); construct: expressed in transfected cells; test: Radioligand binding assay, competitive displacement of [125I]1DMeNPFF at cloned NPFF receptors; settings: cloned rat receptor
Sequence (Q9EP86 whole entry): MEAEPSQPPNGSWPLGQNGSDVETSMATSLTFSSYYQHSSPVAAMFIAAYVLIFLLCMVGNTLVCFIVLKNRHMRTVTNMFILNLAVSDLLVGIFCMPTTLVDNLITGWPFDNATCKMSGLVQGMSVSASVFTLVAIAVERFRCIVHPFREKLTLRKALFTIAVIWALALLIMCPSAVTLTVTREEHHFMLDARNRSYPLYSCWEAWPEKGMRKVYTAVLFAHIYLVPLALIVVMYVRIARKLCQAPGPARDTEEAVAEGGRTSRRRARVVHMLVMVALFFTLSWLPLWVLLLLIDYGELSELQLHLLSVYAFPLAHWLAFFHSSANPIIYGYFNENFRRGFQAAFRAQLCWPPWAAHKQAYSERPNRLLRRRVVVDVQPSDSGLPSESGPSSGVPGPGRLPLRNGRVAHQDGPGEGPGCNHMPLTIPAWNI
Field: value | Transform: log10 | Quantity: Ki | Unit: nM

stdin: Consider the compound N=C(N)NCCC[C@H](NS(=O)(=O)c1cccc([N+](=O)[O-])c1)C(=O)N[C@@H](Cc1ccccc1)C(N)=O . State its measured log10(Ki).
stdout: 2.13

stdin: Consider the compound N=C(N)NCCC[C@H](NS(=O)(=O)c1ccc([N+](=O)[O-])cc1)C(=O)N[C@@H](Cc1ccccc1)C(N)=O . State its measured log10(Ki).
stdout: 2.86

stdin: Consider the compound N=C(N)NCCC[C@H](NS(=O)(=O)c1cccs1)C(=O)N[C@@H](Cc1ccccc1)C(N)=O . State its measured log10(Ki).
stdout: 2.32

stdin: Consider the compound N#Cc1cccc(S(=O)(=O)N[C@@H](CCCNC(=N)N)C(=O)N[C@@H](Cc2ccccc2)C(N)=O)c1 . State its measured log10(Ki).
stdout: 2.70

stdin: Consider the compound N=C(N)NCCC[C@H](NS(=O)(=O)c1ccc([N+](=O)[O-])cc1[N+](=O)[O-])C(=O)N[C@@H](Cc1ccccc1)C(N)=O . State its measured log10(Ki).
stdout: 3.14

stdin: Consider the compound N=C(N)NCCC[C@H](NS(=O)(=O)Cc1ccccc1)C(=O)N[C@@H](Cc1ccccc1)C(N)=O . State its measured log10(Ki).
stdout: 3.78

stdin: Consider the compound N=C(N)NCCC[C@H](NS(=O)(=O)c1ccccc1)C(=O)N[C@@H](Cc1ccccc1)C(N)=O . State its measured log10(Ki).
stdout: 2.51
